We begin with a simple list: items and their reported Tm.
Test Method Notes: melting temperature; melt of duplexes
Test Settings: sodium 0.0675 M; strand 1 µM

Please review the entries below; each comes with its answer.
CGACGTGCGACATGTGCTG+CAGCACATAGTGCACGTCG ((((((((...((((((((+))))))))...)))))))) ... 48.8 °C
CGACGTGCCCTATGTGCTG+CAGCACATTCAGCACGTCG ((((((((...((((((((+))))))))...)))))))) ... 48.8 °C
CGACGTGCCATATGTGCTG+CAGCACATCACGCACGTCG ((((((((...((((((((+))))))))...)))))))) ... 47.6 °C

# next substance below
Exercise: Which Tm value is on record for CGACGTGCTGTATGTGCTG+CAGCACATCACGCACGTCG ((((((((...((((((((+))))))))...)))))))) ?
Key: 50.7 °C

Source: the array DNA melting data of Ke et al.
